Data credit: patent US6737383B1

Catalogue of Rape plant response rating values
Test system: rape
MEASUREMENT_NOTES: Test B pre/postemergence rape
Type: in vivo, Brassica napus
TEST_CONDITIONS: Postemergence, Rate 500 g/ha; scale of 0 to 10 where 0 is no effect and 10 is complete control
MEASURE: Rape plant response rating

> print(dat)
                                   compound  measurement
1  CC(C)N(C(=O)n1oc(=O)n(CC#N)c1=O)c1ccccc1            0
2  COC(C)n1c(=O)on(C(=O)N(c2ccccc2)C(C)C)c1=O (stereo not shown)            0
3  CC(C)N(C(=O)n1oc(=O)n(CC(=O)N(C)C)c1=O)c1ccc(F)cc1F            0
4  CCOC(=O)C=C(Cn1c(=O)on(C(=O)N(c2ccc(F)cc2)C(C)C)c1=O)OCC            6
